- method summary: Exposure (plasma concentration by LC-MS/MS) of NDGA after oral administration in male CD-1 mice at 100 mg/kg
- Assay type: in vivo
- assay conditions: male, CD-1, mouse, plasma, po, 100 mg/kg, PO 100 mg/kg, 0.5% MC in DI water, time point 0.50 hr, group average, read-out: Average plasma concentration
measured endpoint: concentration at 0.5 h (ng/mL)
# number only, unit ng/mL dropped from output

Task: Output measured concentration at 0.5 h for this item: CC(Cc1ccc(O)c(O)c1)C(C)Cc1ccc(O)c(O)c1 (stereo not shown) [NDGA, nordihydroguaiaretic acid]
Output: 44.2

---

- method summary: Exposure (plasma concentration by LC-MS/MS) of NDGA after oral administration in male CD-1 mice at 100 mg/kg
- Format: in vivo
- assay conditions: male, CD-1, mouse, plasma, po, 100 mg/kg, PO 100 mg/kg, 0.5% MC in DI water, time point 2.0 hr, group average
measured endpoint: concentration at 2 h (ng/mL)
Write the number in ng/mL without appending the unit.

Task: Tell me measured concentration at 2 h for CC(Cc1ccc(O)c(O)c1)C(C)Cc1ccc(O)c(O)c1 (stereo not shown) [NDGA, nordihydroguaiaretic acid] please.
Output: 3.08
